testedSystem: GRIP2_3, Q9C0E4
Sequence (Q9C0E4 238-339): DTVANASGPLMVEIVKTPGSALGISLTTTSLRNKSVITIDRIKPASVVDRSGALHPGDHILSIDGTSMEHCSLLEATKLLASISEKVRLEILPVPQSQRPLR
assayDetails: holdup assay
Design: key: below the threshold = too weak to quantify, mostly under pKd 3.1 to 4
measurementContext: plain residues with an end cap or a label only (N-terminal biotin on a linker: ado-ado)

{"binder": "PEKVSNTTVV [IGSF5, Q9NSI5]", "pKd": "below the threshold"}
{"binder": "LVEEEEPMNL [HDAC7, Q8WUI4]", "pKd": "below the threshold"}
{"binder": "NISARRFTLC [FAM167B, Q9BTA0]", "pKd": "below the threshold"}
{"binder": "KLQNPNQSVV [TYRP1, P17643]", "pKd": "below the threshold"}
{"binder": "QRYPGNQTTC [CCL24, O00175]", "pKd": "below the threshold"}
{"binder": "AHGSTRDQSI [KCNB1, Q14721]", "pKd": "below the threshold"}
{"binder": "GNDPDRGTSI [GRID2, O43424]", "pKd": "below the threshold"}
{"binder": "FLVTEFNVML [DFNB31, Q9P202]", "pKd": "below the threshold"}
